Reference source for all entries: ChEMBL document CHEMBL4004835

Molecular target: Histone-lysine N-methyltransferase, H3 lysine-79 specific (Homo sapiens, UniProt Q8TEK3)
Sequence (Q8TEK3 whole entry, looked up, the tested form may be a part): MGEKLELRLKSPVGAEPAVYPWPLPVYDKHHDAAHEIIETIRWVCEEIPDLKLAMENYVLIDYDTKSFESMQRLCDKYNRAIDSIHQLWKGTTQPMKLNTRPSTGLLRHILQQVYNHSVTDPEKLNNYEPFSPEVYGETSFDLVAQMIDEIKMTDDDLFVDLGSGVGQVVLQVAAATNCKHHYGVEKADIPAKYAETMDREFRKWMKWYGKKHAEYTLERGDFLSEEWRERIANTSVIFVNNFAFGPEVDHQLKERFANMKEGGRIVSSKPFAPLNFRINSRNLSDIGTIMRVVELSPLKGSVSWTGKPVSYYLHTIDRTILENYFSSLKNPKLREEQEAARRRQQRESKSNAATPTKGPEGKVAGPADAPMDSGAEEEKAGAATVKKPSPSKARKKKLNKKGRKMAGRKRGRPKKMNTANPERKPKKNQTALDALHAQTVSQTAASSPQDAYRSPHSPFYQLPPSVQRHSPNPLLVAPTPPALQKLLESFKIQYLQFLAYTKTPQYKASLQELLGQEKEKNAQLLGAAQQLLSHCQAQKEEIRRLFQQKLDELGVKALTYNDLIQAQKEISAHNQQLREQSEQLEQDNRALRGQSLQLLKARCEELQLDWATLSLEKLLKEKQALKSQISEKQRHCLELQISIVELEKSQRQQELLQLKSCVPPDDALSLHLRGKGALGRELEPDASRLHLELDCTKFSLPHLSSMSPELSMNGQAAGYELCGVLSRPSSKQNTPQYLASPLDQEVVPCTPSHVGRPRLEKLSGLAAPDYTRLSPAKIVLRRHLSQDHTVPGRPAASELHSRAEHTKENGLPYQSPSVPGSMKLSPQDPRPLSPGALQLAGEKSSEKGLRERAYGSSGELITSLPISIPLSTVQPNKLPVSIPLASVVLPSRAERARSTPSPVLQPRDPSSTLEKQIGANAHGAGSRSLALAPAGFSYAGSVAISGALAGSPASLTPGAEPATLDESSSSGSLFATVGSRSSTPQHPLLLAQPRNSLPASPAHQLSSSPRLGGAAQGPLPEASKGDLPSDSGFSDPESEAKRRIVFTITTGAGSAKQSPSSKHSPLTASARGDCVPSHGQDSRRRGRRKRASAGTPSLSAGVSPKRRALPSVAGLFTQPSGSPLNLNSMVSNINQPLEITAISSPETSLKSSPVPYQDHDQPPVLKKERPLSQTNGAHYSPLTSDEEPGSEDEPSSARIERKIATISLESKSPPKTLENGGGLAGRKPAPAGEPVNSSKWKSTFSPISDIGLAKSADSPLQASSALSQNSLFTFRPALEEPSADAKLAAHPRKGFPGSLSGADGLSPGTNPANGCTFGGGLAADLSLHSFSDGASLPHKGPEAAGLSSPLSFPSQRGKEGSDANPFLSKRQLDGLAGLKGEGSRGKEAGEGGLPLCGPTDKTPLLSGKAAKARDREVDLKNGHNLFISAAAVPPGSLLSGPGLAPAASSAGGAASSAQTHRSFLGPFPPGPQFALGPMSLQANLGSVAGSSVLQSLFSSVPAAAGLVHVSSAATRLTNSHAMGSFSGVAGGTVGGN
Experiment: Inhibition of N-terminal 6His-tagged human DOT1L (1 to 416 residues) expressed in Escherichia coli BL21(DE3) at 50 uM preincubated for 15 mins followed by [3H]-SAM addition measured after 120 mins by radioactive methylation assay
Readout type: inhibition (%)

Some compounds with known inhibition results, for comparison:
1. COc1ccc(-c2nn3c(Cn4nnc5ccccc54)nnc3s2)cc1 ... 54
2. c1ccc2c(c1)nnn2Cc1nnc2sc(-c3ccc4c(c3)OCO4)nn12 ... 65
3. c1ccc(-c2nn3c(Cn4cnc5ccccc54)nnc3s2)cc1 ... 55
4. Cc1nc2ccccc2n1Cc1nnc2sc(-c3ccc(F)c(Br)c3)nn12 ... 49
5. Fc1cccc(-c2nn3c(CCc4ccccc4)nnc3s2)c1 ... 18

[I] Fc1cccc(-c2nn3c(CSc4ccccc4)nnc3s2)c1
[II] Brc1ccc(-c2nn3c(Cn4nnc5ccccc54)nnc3s2)cc1
Between I and II , which one shows the larger inhibition value? Could you answer with the label of the item you picked?
II
(II: 50%, I: 21%)

[1] COc1ccc(-c2nn3c(Cn4nnc5ccccc54)nnc3s2)cc1OC
[2] CCCc1nnc2sc(-c3cccc(F)c3)nn12
Decide: 1 or 2 , by lowest recorded inhibition. Could you answer with the label of the item you picked?
2
(2: 35%, 1: 56%)
